ASSAY_TEXT: Selectivity index, ratio of CC50 for human MT4 cells to EC50 for HIV1 3B
Assay type: toxicity, cell-based
CONDITION_CONTEXT: read-out: Ratio CC50/EC50
selectivity ratio values by entry

# count of solved cases: 5
INPUT_SMILES	OBSERVED_VALUE
COc1ccc(Cl)cc1NC(=S)OCCN1C(=O)c2ccccc2C1=O	> 2.1
Cc1ccc2c(c1)C(=O)N(CCOC(=S)Nc1ccc(Cl)c(Cl)c1)C2=O	250
O=C1c2ccccc2C(=O)N1CCOC(=S)Nc1c(Cl)cccc1Cl	> 4.8
O=C1c2ccccc2C(=O)N1CCOC(=S)Nc1c(Cl)cc(Cl)cc1Cl	> 10
COc1ccc(C)cc1NC(=S)OCCNC(=O)c1ccccc1C(=O)O	> 1.1

Please examine the following record next.
Req: Can you share its selectivity ratio? I mean this compound: Cc1ccc2c(c1)C(=O)N(CCOC(=S)Nc1ccc(F)cc1)C2=O
Resp: 3330

###

ASSAY_TEXT: Cytotoxicity against mock-infected human MT4 cells by MTT assay
Assay type: cell-based
READOUT_LABEL: CC50

# count of solved cases: 5
INPUT_SMILES	CC50
O=C1c2ccccc2C(=O)N1CCOC(=S)Nc1c(F)cc(F)cc1F	> 100 µM
Cc1ccc(NC(=S)OC[C@@H](C)N2C(=O)c3ccccc3C2=O)cc1	76 µM
Cc1cccc(Cl)c1NC(=S)OCCN1C(=O)c2ccccc2C1=O	> 100 µM
COc1ccc(NC(=S)OCCN2C(=O)c3ccc(C)cc3C2=O)cc1	> 100 µM
O=C(O)c1ccccc1C(=O)NCCOC(=S)Nc1cc(F)cc(F)c1	> 100 µM

Req: Can you share its CC50? I mean this molecule: COc1ccc(CCNC(=S)OCCN2C(=O)c3ccccc3C2=O)cc1OC
Resp: > 100 µM

Req: What do you get for O=C1c2ccccc2C(=O)N1CCOC(=S)Nc1ccc(Cl)c(Cl)c1Cl ?
Resp: > 100 µM

###

ASSAY_TEXT: Cytotoxicity against mock-infected human MT4 cells by MTT assay
Type: cell-based
READOUT_LABEL: CC50

# count of solved cases: 2
INPUT_SMILES	OBSERVED_VALUE
O=C1c2ccccc2C(=O)N1CCOC(=S)Nc1ccc(Cl)c(Cl)c1	> 100 µM
Cc1ccc(NC(=S)OCCN2C(=O)c3ccc(C(C)(C)C)cc3C2=O)cc1	42 µM

Req: Can you share its CC50? I mean this molecule: Cc1cc(C)cc(NC(=S)OCCN2C(=O)c3ccccc3C2=O)c1
Resp: > 100 µM

Req: What do you get for Cc1ccc2c(c1)C(=O)N(CCOC(=S)Nc1ccc(Cl)c(Cl)c1)C2=O ?
Resp: 50 µM

Req: What do you get for Cc1ccc2c(c1)C(=O)N(CCOC(=S)Nc1ccc(F)cc1)C2=O ?
Resp: 100 µM

Req: What do you get for Cc1ccc2c(c1)C(=O)N(CCOC(=S)Nc1ccc(C)c(Cl)c1)C2=O ?
Resp: 66 µM

Req: What do you get for Cc1cccc(C)c1NC(=S)OCCN1C(=O)c2ccccc2C1=O ?
Resp: > 100 µM

Req: What do you get for Cc1cc(Br)ccc1NC(=S)OCCN1C(=O)c2ccccc2C1=O ?
Resp: > 100 µM

Req: What do you get for C[C@H](COC(=S)Nc1ccc(Cl)cc1)N1C(=O)c2ccccc2C1=O ?
Resp: 48 µM
